Recorded values, source patent US20180327367A1.

# Tested on: Methicillin Resistant Staphylococcus aureus strain USA 300, NRS384
# Run description: Minimum inhibitory concentration, broth micro-dilution (CLSI), S. aureus
# Type: cell-based
# Cond: Staphylococcus aureus, MRSA / NRS 384 / USA300, 22 h, MRSA USA 300 NRS384; 35° C., 22 hours; read-out: MIC (μg/mL) S. aureus
# Experimental: In vitro antimicrobial activity of each compound was determined by measuring minimal inhibitor concentrations (MICs) using the broth micro-dilution technique as approved by the Clinical and Laboratory Standards Institute (CLSI) (Methods for Dilution Antimicrobial Susceptibility Tests for Bacteria that Grow Aerobically; Approved Standard—Eighth Edition. CLSI document M07-A8. Wayne, Pa.: Clinical and Laboratory Standards; 2009). […]
Param label: returns true (1) when MIC < 0.06 µg/mL, returns false (0) otherwise, including exact equality.

A selection of reference data follows.
INSERT INTO measurements (input_smiles, class) VALUES
  ('CCCCCc1ccc(CNCCC(=O)N(C)[C@@H]2C(=O)N[C@@H](C)C(=O)N[C@H](C(=O)NCC#N)Cc3ccc(OCCN)c(c3)-c3cc2ccc3OCCN)c(C)c1', 'false (0)'),
  ('CCCCCCCc1cc(C)c(C(=O)N[C@@H](CCN)C(=O)N(C)[C@@H]2C(=O)N[C@@H](C)C(=O)N[C@H](C(=O)NCC#N)Cc3ccc(OCCN)c(c3)-c3cc2ccc3OCCN)c(F)c1', 'true (1)'),
  ('CCCCCCCc1cc(C)c(C(=O)N[C@@H](CCN)C(=O)N(C)[C@@H]2C(=O)N[C@@H](C)C(=O)N[C@H](C(=O)NCC#N)Cc3ccc(OCCN)c(c3)-c3cc2ccc3OCCN)c(C)c1', 'true (1)'),
  ('CCCCCCCCc1ccc(C(=O)N[C@@H](CCNCC(=O)O)C(=O)N(C)[C@@H]2C(=O)N[C@@H](C)C(=O)N[C@H](C(=O)NCC#N)Cc3ccc(OCCN)c(c3)-c3cc2ccc3OCCN)c(C)c1', 'false (0)'),
  ('CCCCCCOCc1ccc(C(=O)N[C@@H](CCN)C(=O)N(C)[C@@H]2C(=O)N[C@@H](C)C(=O)N[C@H](C(=O)NCC#N)Cc3ccc(OCCN)c(c3)-c3cc2ccc3OCCN)c(C)c1', 'false (0)');

Ask: Is MIC of CCCCCCCCCC(=O)N[C@@H](C)C(=O)NCCC(=O)N[C@@H](CCN)C(=O)N(C)[C@@H]1C(=O)N[C@@H](C)C(=O)N[C@H](C(=O)NCC#N)Cc2ccc(OCCN)c(c2)-c2cc1ccc2OCCN strictly below 0.06 µg/mL?
Reply: false (0)

Ask: Is MIC of CCCCCCCS(=O)(=O)c1ccc(C(=O)N[C@@H](CCN)C(=O)N(C)[C@@H]2C(=O)N[C@@H](C)C(=O)N[C@H](C(=O)NCC#N)Cc3ccc(OCCN)c(c3)-c3cc2ccc3OCCN)c(C)c1 strictly below 0.06 µg/mL?
Reply: false (0)

Ask: Is MIC of Cc1nc(-c2ccc(-c3ccccc3)cc2)ncc1C(=O)N[C@@H](CCN)C(=O)N(C)[C@@H]1C(=O)N[C@@H](C)C(=O)N[C@H](C(=O)NCC#N)Cc2ccc(OCCN)c(c2)-c2cc1ccc2OCCN strictly below 0.06 µg/mL?
Reply: true (1)

Ask: Is MIC of CCCCCCCOc1cc(C)c(C(=O)N[C@@H](CCN)C(=O)N(C)[C@@H]2C(=O)N[C@@H](C)C(=O)N[C@H](C(=O)NCC#N)Cc3ccc(OCCN)c(c3)-c3cc2ccc3OCCN)c(Cl)c1 strictly below 0.06 µg/mL?
Reply: false (0)

Ask: Is MIC of CCCCCCCCCCS(=O)(=O)N[C@@H](CCN)C(=O)N(C)[C@@H]1C(=O)N[C@@H](C)C(=O)N[C@H](C(=O)NCC#N)Cc2ccc(OCCN)c(c2)-c2cc1ccc2OCCN strictly below 0.06 µg/mL?
Reply: true (1)
